tested on: DU-145 prostate; assay: NCI-60 one-dose screen, 48 h (100 = growth as untreated, 0 = no growth, -100 = all killed); details: 10 µM unless noted
About 83,000 compounds went through this panel and 20% of them were active in at least one assay; those are over-represented in the sample as a whole.

>  <cpd smiles>
O=C(C[C@]1(O)C(=O)Nc2ccc(Br)cc21)c1ccco1

>  <growth (%)>
106

$$$$
>  <cpd smiles>
COC(=O)c1ccc2cc(OC)c(OC)cc2c1

>  <growth (%)>
116

$$$$
>  <cpd smiles>
Nc1[nH]nc2nc(-c3ccccc3)n3c4ccccc4nc3c12

>  <growth (%)>
117

$$$$
>  <cpd smiles>
CCN(CC)CCn1c2ccc(OC)cc2c2sc3cc(O)ccc3c(=O)c21

>  <growth (%)>
42.7

$$$$
>  <cpd smiles>
CN(C)CCC(CCN(C)C)(C(=O)O)c1ccccc1

>  <growth (%)>
115

$$$$
>  <cpd smiles>
COc1cc(Cc2cc(OC)c(O)c(OC)c2)cc(OC)c1O

>  <growth (%)>
117

$$$$
>  <cpd smiles>
N#Cc1c(-c2ccccc2)nc2c(c(-c3ccccc3)nn2-c2ccccc2)c1-c1ccc(N2CCCCC2)cc1

>  <growth (%)>
103

$$$$
>  <cpd smiles>
N#Cc1ccccc1-c1ccc(CN2C(=O)S/C(=C\c3ccc(Br)cc3)C2=O)cc1

>  <growth (%)>
105

$$$$
